tested on: A549 (human lung cancer cells); test: MTT cancer cell growth inhibition; type: cell-based; details: Homo sapiens, A549, 72 h, A549 cells, MTT, 72 hours incubation; read-out: GI50 A54

# Compound, Experimental Target, GI50, µM
measured = [
    ("C/C=C1\\NC(=O)c2ccc(SCC)c(n2)CNC(=O)C[C@@H](/C=C/CCSC(=O)CCCCC)OC(=O)[C@H](C(C)C)NC1=O [Compound 255]", "A549 (human lung cancer cells)", 0.03),
    ("C/C=C1\\NC(=O)c2nc(ccc2SC)CNC(=O)C[C@@H](/C=C/CCSC(=O)CCCCCCC)OC(=O)[C@H](C)NC1=O [Compound 180]", "A549 (human lung cancer cells)", 0.03),
    ("C/C=C1\\NC(=O)c2nc(ccc2SC)CNC(=O)C[C@@H](/C=C/CCSC(=O)CCCCCC)OC(=O)[C@H](C(C)C)NC1=O [Compound 150]", "A549 (human lung cancer cells)", 0.03),
]

---

# GI50 annotations
tested on: SGC-7901 (human gastric cancer cells); assay: MTT cancer cell growth inhibition; format: cell-based; settings: Homo sapiens, SGC-7901, 72 h, MTT, 72 hours incubation, SGC-7901 cells; read-out: GI50 SGC-7901
Measurement Name: GI50 (µM)

# Compound, Measurement Name, Measure Unit, Result Number
data = [
    ("C/C=C1\\NC(=O)c2cccc(n2)CNC(=O)C[C@@H](/C=C/CCSC(C)=O)OC(=O)[C@H](CCCCNC(=O)OCC2c3ccccc3-c3ccccc32)NC1=O [Compound 16]", "GI50", "µM", 0.051),
    ("C=C1NC(=O)c2nc(ccc2F)CNC(=O)C[C@@H](/C=C/CCSC(C)=O)OC(=O)[C@H](C)NC1=O [Compound 90]", "GI50", "µM", 0.036),
    ("C=C1NC(=O)c2cc(F)cc(n2)CNC(=O)C[C@@H](/C=C/CCS)OC(=O)[C@H](C)NC1=O [Compound 141]", "GI50", "µM", 0.017),
    ("C/C=C1\\NC(=O)c2ccc(SC)c(n2)CNC(=O)C[C@@H](/C=C/CCSC(=O)CC)OC(=O)[C@H](C(C)C)NC1=O [Compound 164]", "GI50", "µM", 0.028),
    ("C/C=C1\\NC(=O)c2nc(ccc2SC)CNC(=O)C[C@@H](/C=C/CCSC(C)=O)OC(=O)[C@@H](C)NC1=O [Compound 220]", "GI50", "µM", 0.028),
    ("C/C=C1\\NC(=O)c2cc(SC)cc(n2)CNC(=O)C[C@@H](/C=C/CCSC(C)=O)OC(=O)[C@H](CCCCN)NC1=O [Compound 193]", "GI50", "µM", 0.073),
]

---

target: UniProt:Q96DB2; test: HDAC biochemical activity measurement (fluorescent substrate deacetylation)
pIC50: −log10 of the molar value.

# Molecule, pIC50
rows = [
    ("C/C=C1\\NC(=O)c2cccc(n2)CNC(=O)C[C@@H](/C=C/CCSC(=O)CCCCCCC)OC(=O)[C@H](CC(C)C)NC1=O [Compound 241]", 7.16),
    ("C/C=C1\\NC(=O)c2cc(SC)cc(n2)CNC(=O)C[C@@H](/C=C/CCSC=O)OC(=O)[C@H](C(C)C)NC1=O [Compound 169]", 7.04),
    ("C/C=C1\\NC(=O)c2cccc(n2)CNC(=O)C[C@@H](/C=C/CCSC(=O)CCCCCCC)OC(=O)[C@H](CSCC)NC1=O [Compound 242]", 7.17),
    ("C/C=C1\\NC(=O)c2nc(ccc2SC)CNC(=O)C[C@@H](/C=C/CCS)OC(=O)[C@H](C)NC1=O [Compound 232]", 6.82),
]

---

Target: HDAC11 (Homo sapiens, UniProt Q96DB2)
Sequence (Q96DB2 1-347): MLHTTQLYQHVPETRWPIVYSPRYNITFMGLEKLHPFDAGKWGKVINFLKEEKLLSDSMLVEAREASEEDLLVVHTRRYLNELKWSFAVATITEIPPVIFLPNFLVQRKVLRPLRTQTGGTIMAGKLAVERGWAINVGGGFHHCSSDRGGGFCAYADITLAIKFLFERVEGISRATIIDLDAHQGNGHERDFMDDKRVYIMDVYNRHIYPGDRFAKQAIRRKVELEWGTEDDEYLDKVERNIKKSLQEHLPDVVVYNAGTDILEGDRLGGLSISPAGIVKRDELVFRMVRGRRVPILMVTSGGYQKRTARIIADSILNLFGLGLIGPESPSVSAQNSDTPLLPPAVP
Experiment: HDAC biochemical activity measurement (fluorescent substrate deacetylation);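 note: HDAC11 enzyme acting on an acetyl-lysine fluorogenic substrate, then a developer frees the fluorophore, read at excitation 360 nm and emission 460 nm, IC50 over a compound dilution series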
Conditions: read-out: IC50 HDAC11; HDAC11; 37° C. 30 minutes

# Given Smiles, IC50
rows = [
    ("C/C=C1\\NC(=O)c2nc(F)cc(n2)CNC(=O)C[C@@H](/C=C/CCSC(C)=O)OC(=O)[C@H](C(C)C)NC1=O", "89 nM"),
    ("CC(=O)SCC/C=C/[C@@H]1CC(=O)NCc2cc(F)cc(n2)C(=O)NC(=C(C)C)C(=O)N[C@@H](C(C)C)C(=O)O1", "94 nM"),
    ("CC(=O)SCC/C=C/[C@@H]1CC(=O)NCc2cccc(n2)C(=O)NC(=C(C)C)C(=O)N[C@@H](C(C)C)C(=O)O1", "87 nM"),
    ("C/C=C1\\NC(=O)c2nc(ccc2F)CNC(=O)C[C@@H](/C=C/CCSC(C)=O)OC(=O)[C@H](Cc2cccc3ccccc23)NC1=O", "94 nM"),
    ("C/C=C1\\NC(=O)c2nc(ccc2F)CNC(=O)C[C@@H](/C=C/CCSC(C)=O)OC(=O)[C@H](CCCCN)NC1=O", "276 nM"),
    ("C/C=C1\\NC(=O)c2cc(F)cc(n2)CNC(=O)C[C@@H](/C=C/CCSC(=O)CCCC)OC(=O)[C@H](C(C)C)NC1=O", "96 nM"),
    ("C/C=C1\\NC(=O)c2cc(F)cc(n2)CNC(=O)C[C@@H](/C=C/CCSC(=O)CC)OC(=O)[C@H](C(C)C)NC1=O", "82 nM"),
    ("C/C=C1\\NC(=O)c2nc(cc(SC)n2)CNC(=O)C[C@@H](/C=C/CCSC(C)=O)OC(=O)[C@H](C(C)C)NC1=O", "81 nM"),
    ("C/C=C1\\NC(=O)c2cc(F)cc(n2)CNC(=O)C[C@@H](/C=C/CCSC(=O)CCCCCCC)OC(=O)[C@H](Cc2ccccc2)NC1=O", "97 nM"),
    ("C/C=C1\\NC(=O)c2cccc(n2)CNC(=O)C[C@@H](/C=C/CCSC(=O)CC)OC(=O)[C@H](C(C)C)NC1=O", "135 nM"),
    ("C/C=C1\\NC(=O)c2nc(ccc2F)CNC(=O)C[C@@H](/C=C/CCSC(=O)CCCCCC)OC(=O)[C@H](C(C)C)NC1=O", "89 nM"),
    ("C/C=C1\\NC(=O)c2nc(ccc2C)CNC(=O)C[C@@H](/C=C/CCSC(=O)CCCCCCC)OC(=O)[C@H](C(C)C)NC1=O", "187 nM"),
    ("C/C=C1\\NC(=O)c2nc(ccc2SC)CNC(=O)C[C@@H](/C=C/CCSC(C)=O)OC(=O)[C@H](C)NC1=O", "87 nM"),
]

---

tested on: U937 (human leukemia cells); test: MTT cancer cell growth inhibition; type: cell-based; settings: Homo sapiens, U-937, 72 h, MTT, 72 hours incubation; read-out: GI50 U93
GI50 strictly under 30 nM means TRUE; at 30 nM or over means FALSE.

# Given Smiles, Experimental Target, Assigned Category
records = [
    ("C/C=C1\\NC(=O)c2cc(F)cc(n2)CNC(=O)C[C@@H](/C=C/CCSC(C)=O)OC(=O)[C@H](Cc2cccc3ccccc23)NC1=O", "U937 (human leukemia cells)", "FALSE"),
    ("C/C=C1\\NC(=O)c2cc(F)cc(n2)CNC(=O)C[C@@H](/C=C/CCSC=O)OC(=O)[C@H](C(C)C)NC1=O", "U937 (human leukemia cells)", "FALSE"),
    ("CC(=O)SCC/C=C/[C@@H]1CC(=O)NCc2cc(F)cc(n2)C(=O)NC(=C(C)C)C(=O)N[C@@H](C(C)C)C(=O)O1", "U937 (human leukemia cells)", "FALSE"),
    ("C/C=C1\\NC(=O)c2nc(ccc2C)CNC(=O)C[C@@H](/C=C/CCSC(C)=O)OC(=O)[C@H](Cc2ccccc2)NC1=O", "U937 (human leukemia cells)", "TRUE"),
    ("C/C=C1\\NC(=O)c2cc(F)cc(n2)CNC(=O)C[C@@H](/C=C/CCS)OC(=O)[C@H](CC)NC1=O", "U937 (human leukemia cells)", "FALSE"),
    ("C/C=C1\\NC(=O)c2cc(F)cc(n2)CNC(=O)C[C@@H](/C=C/CCSC(=O)CCCC)OC(=O)[C@H](C(C)C)NC1=O", "U937 (human leukemia cells)", "FALSE"),
    ("C/C=C1\\NC(=O)c2nc(ccc2F)CNC(=O)C[C@@H](/C=C/CCSC(C)=O)OC(=O)[C@H](Cc2ccc(O)cc2)NC1=O", "U937 (human leukemia cells)", "FALSE"),
    ("C/C=C1\\NC(=O)c2cccc(n2)CNC(=O)C[C@@H](/C=C/CCS)OC(=O)[C@H](CCCCNC(=O)OCC2c3ccccc3-c3ccccc32)NC1=O", "U937 (human leukemia cells)", "FALSE"),
    ("C/C=C1\\NC(=O)c2cccc(n2)CNC(=O)C[C@@H](/C=C/CCS)OC(=O)[C@@H](C)NC1=O", "U937 (human leukemia cells)", "FALSE"),
    ("C/C=C1\\NC(=O)c2cccc(n2)CNC(=O)C[C@@H](/C=C/CCSC(C)=O)OC(=O)[C@H](CCCCN)NC1=O", "U937 (human leukemia cells)", "FALSE"),
    ("C/C=C1\\NC(=O)c2ccc(F)c(n2)CCNC(=O)C[C@@H](/C=C/CCSC(C)=O)OC(=O)[C@H](C(C)C)NC1=O", "U937 (human leukemia cells)", "FALSE"),
    ("C/C=C1\\NC(=O)c2nc(ccc2F)CNC(=O)C[C@@H](/C=C/CCS)OC(=O)[C@H](Cc2ccc(O)cc2)NC1=O", "U937 (human leukemia cells)", "FALSE"),
    ("C/C=C1\\NC(=O)c2nc(ccc2F)CNC(=O)C[C@@H](/C=C/CCSC(=O)CCCCCC)OC(=O)[C@H](C(C)C)NC1=O", "U937 (human leukemia cells)", "TRUE"),
    ("C/C=C1\\NC(=O)c2nc(ccc2F)CNC(=O)C[C@@H](/C=C/CCS)OC(=O)[C@H](CC)NC1=O", "U937 (human leukemia cells)", "FALSE"),
    ("C/C=C1\\NC(=O)c2nc(ccc2F)CNC(=O)C[C@@H](/C=C/CCSC=O)OC(=O)[C@H](C(C)C)NC1=O", "U937 (human leukemia cells)", "FALSE"),
    ("C=C1NC(=O)c2cccc(n2)CNC(=O)C[C@@H](/C=C/CCSC(C)=O)OC(=O)[C@H](C)NC1=O", "U937 (human leukemia cells)", "FALSE"),
    ("C/C=C1\\NC(=O)c2ccc(F)c(n2)CNC(=O)C[C@@H](/C=C/CCSC(=O)CCCCCCC)OC(=O)[C@H](C)NC1=O", "U937 (human leukemia cells)", "TRUE"),
]

Source listed as patent US10065990B2.
